# Tested on: ACHN renal
# ASSAY DETAILS: NCI-60 one-dose screen, 48 h
# CONDITION DESCRIPTION: 10 µM unless noted
Compounds without any hit were thinned out: in the full panel of roughly 83,000, 20% have a hit. Active and inactive are the calls of the source. The calls were made as follows: active = growth percent below 10; inactive = the rest.
Outcomes you can answer with include only these: 1 (active), -1 (inactive)

Inquiry: State the result this test recorded for "COc1ccc(NC2=CC(=O)C(C)=C(C)C2=O)cc1" .
Reply text: -1

Inquiry: State the result this test recorded for "OC1CCN(CCCOc2c3ccc(Cl)cc3nc3c2oc2ccc(Cl)cc23)CC1" .
Reply text: 1

Inquiry: State the result this test recorded for "Cc1ccccc1NC(=O)/C=C/c1ccc(OCCOc2ccc3c(C)cc(=O)oc3c2)cc1" .
Reply text: -1

Inquiry: State the result this test recorded for "Cc1ccc(CNS(=O)(=O)/N=C2\NC(=O)NC2=C(Cl)Cl)cc1" .
Reply text: -1

Inquiry: State the result this test recorded for "CS(=O)(=O)c1ccc(-c2nc3ccccn3c2/C=N/Nc2nc(-c3ccc(Cl)cc3)cs2)cc1" .
Reply text: -1

====

# System: MCF7 breast
# ASSAY DETAILS: NCI-60 one-dose screen, 48 h
# CONDITION DESCRIPTION: 10 µM unless noted
About 83,000 compounds went through this panel and 20% of them were active in at least one assay; those are over-represented in the sample as a whole. Active and inactive are the calls of the source. How the source made its calls: active means growth percent below 10; inactive means the rest.
Outcomes you can answer with include only these: YES for active, NO for inactive

Inquiry: State the result this test recorded for O=C1NC(=C(Cl)Cl)/C(=N/S(=O)(=O)N2CCCCC2CC2(C(F)(F)F)N=N2)N1 (configuration not stated) .
Reply text: YES

Inquiry: State the result this test recorded for "C/C(=N\NC(N)=O)c1c(O)sc(=O)[nH]c1=O" .
Reply text: NO

Inquiry: State the result this test recorded for "COc1ccc(-c2cc(C(=O)N=Nc3c(O)[nH]c4ccccc34)c3ccccc3n2)cc1OC" .
Reply text: NO

Inquiry: State the result this test recorded for "O=C(CSc1nc2sc3c(c2c(=O)n1-c1ccc(Cl)cc1)CCCC3)NNC(=O)Nc1ccc(Cl)c(C(F)(F)F)c1" .
Reply text: NO

Inquiry: State the result this test recorded for Nc1nc(N)c2c(n1)NC(c1ccc(C(F)(F)F)cc1)CC(c1ccc(Nc3nc(NCCO)nc(Nc4ccc(Cl)cc4)n3)cc1)=N2 (configuration not stated) .
Reply text: YES

Inquiry: State the result this test recorded for "Cc1nc(-c2cc3ccccc3oc2=O)ccc1C(=O)/C=C/c1ccc(Cl)c(Cl)c1" .
Reply text: NO

Inquiry: State the result this test recorded for "O=C(CCN1C(=O)/C(=C/c2ccccc2F)SC1=S)N1CCOCC1" .
Reply text: NO

Inquiry: State the result this test recorded for "CC(=O)Oc1ccccc1C(=O)Nc1cc(C(C)C)ccc1C" .
Reply text: YES

Inquiry: State the result this test recorded for "OC1CCN(CCCOc2c3ccc(Cl)cc3nc3c2oc2ccccc23)CC1" .
Reply text: YES

Inquiry: State the result this test recorded for "CC(C)(C)Nc1nc2c(OCCc3ccccc3)cccn2c1-c1ccccc1Cl" .
Reply text: YES

Inquiry: State the result this test recorded for "Fc1ccc(-c2cc3nc(C(Cl)Cl)nc(-c4ccc(Cl)cc4)n3n2)cc1" .
Reply text: NO

Inquiry: State the result this test recorded for "O=C(N/N=C/c1ccco1)c1[nH]c2ccc(Br)cc2c1-c1ccccc1" .
Reply text: NO

Inquiry: State the result this test recorded for "CC(=O)Oc1ccccc1C(=O)Nc1ccc(C(=O)/C=C/c2cccs2)cc1" .
Reply text: NO

Inquiry: State the result this test recorded for "C#Cc1nc(C2=C(C)C(=O)/C(=N/OC(C)=O)C2)cs1" .
Reply text: NO

Inquiry: State the result this test recorded for "Cn1cc(-c2cc(N)n3nc(-c4cn(C)c5ccc(Br)cc45)cc3n2)c2cc(Br)ccc21" .
Reply text: YES

Inquiry: State the result this test recorded for "Cc1nc(-c2cc3ccccc3oc2=O)ccc1C(=O)/C=C/c1ccccn1" .
Reply text: YES

Inquiry: State the result this test recorded for "O=C(CN1C(=O)/C(=C/c2ccccc2)SC1=S)N1CCOCC1" .
Reply text: NO

Inquiry: State the result this test recorded for "O=C(Oc1ccc2ccc(=O)oc2c1)c1ccc(Cl)cc1" .
Reply text: NO

Inquiry: State the result this test recorded for "COc1ccc(/C=N/NC(=O)c2[nH]c3ccc(Br)cc3c2-c2ccccc2)s1" .
Reply text: YES

Inquiry: State the result this test recorded for "COc1cccc(NC2=CC(=O)C(C)=C(C)C2=O)c1" .
Reply text: NO

Inquiry: State the result this test recorded for "COc1ccc(/C=C2\SC(=Nc3cc(C)on3)NC2=O)cc1" .
Reply text: NO

Inquiry: State the result this test recorded for "CC(C)(C)Nc1nc2c(OCCc3ccccc3)cccn2c1-c1ccc(Cl)cc1" .
Reply text: YES

Inquiry: State the result this test recorded for CCN1C(=S)N(CC)C2C1N=C(SC)N2/N=C/C=C/c1ccccc1[N+](=O)[O-] (configuration not stated) .
Reply text: NO

Inquiry: State the result this test recorded for "Cc1nc(-c2cc3ccccc3oc2=O)ccc1C(=O)/C=C/c1ccc(N2CCOCC2)cc1" .
Reply text: NO

Inquiry: State the result this test recorded for CN1C(=S)N(C)C2C1NN=C1SC(c3ccccc3)=CC(=O)N12 (configuration not stated) .
Reply text: NO

Inquiry: State the result this test recorded for "COc1ccc(C(=O)/C=C/c2ccc(OCc3ccc(C)cc3)c(OC)c2)cc1OC" .
Reply text: NO

Inquiry: State the result this test recorded for "Fc1ccc(-c2cc3nc(C(Cl)Cl)nc(-c4ccccc4)n3n2)cc1" .
Reply text: YES

Inquiry: State the result this test recorded for "CN(C)S(=O)(=O)c1oc(-c2ccccc2)nc1C#N" .
Reply text: NO

Inquiry: State the result this test recorded for "CN1CCN(Cc2ccc(NC(=O)c3cncc(C#Cc4cnc5[nH]ncc5c4)c3)cc2C(F)(F)F)CC1" .
Reply text: NO

Inquiry: State the result this test recorded for "N#Cc1c(-c2ccc(Cl)cc2)nc(SCc2ccc([N+](=O)[O-])cc2)nc1N1CCNCC1" .
Reply text: YES

Inquiry: State the result this test recorded for "CN(C)CCCOc1c2ccccc2nc2c1oc1ccc(Cl)cc12" .
Reply text: YES

Inquiry: State the result this test recorded for "NC(=O)c1cc(-c2ccc3ncnc(N4CCc5cc(F)c(Cl)cc54)c3c2)cnc1N" .
Reply text: NO

====

# Test system: OVCAR-8 ovarian
# ASSAY DETAILS: NCI-60 one-dose screen, 48 h (100 = growth as untreated, 0 = no growth, -100 = all killed)
# CONDITION DESCRIPTION: 10 µM unless noted
The panel holds about 83,000 compounds, 20% with a hit somewhere; the sample as a whole holds those more often.
Lab note: compare growth with 50%, writing Fulfilled if less and Not fulfilled if equal or more.

Inquiry: Determine whether this compound shows growth lower than 50% (ties excluded): "O=C1[C@H]2Cc3c([nH]c4ccccc34)[C@@H](c3ccc(Br)cc3)N2C(=O)CN1C1CCN(Cc2ccccc2)CC1"
Reply text: Fulfilled

Inquiry: Determine whether this compound shows growth lower than 50% (ties excluded): "COc1cc(/C=C/C(=O)c2ccc(Cl)cc2)ccc1Oc1nc(NCCO)nc(N2CCOCC2)n1"
Reply text: Not fulfilled

Inquiry: Determine whether this compound shows growth lower than 50% (ties excluded): "CSc1ccc2c(c1)N(C(=O)/C(C#N)=C/c1c[nH]c3ccccc13)c1ccccc1S2"
Reply text: Not fulfilled

Inquiry: Determine whether this compound shows growth lower than 50% (ties excluded): OC1CCc2c(-c3ccc4ncnc(N5CCc6cc(F)c(Cl)cc65)c4c3)cncc21 (stereo not given)
Reply text: Not fulfilled

Inquiry: Determine whether this compound shows growth lower than 50% (ties excluded): "Cn1ccnc1C(=O)/C=C/c1ccc(NC(=O)Nc2ccccc2)cc1"
Reply text: Fulfilled

Inquiry: Determine whether this compound shows growth lower than 50% (ties excluded): CCCC(=O)NC(c1ccc(N(CC)CC)cc1)c1cc(C)c2cccnc2c1O (stereo not given)
Reply text: Fulfilled

Inquiry: Determine whether this compound shows growth lower than 50% (ties excluded): "Clc1ccc2oc3c(OCCCn4ccnc4)c4ccccc4nc3c2c1"
Reply text: Fulfilled

Inquiry: Determine whether this compound shows growth lower than 50% (ties excluded): "NS(=O)(=O)c1cccc(Nc2nc(SCC(=O)c3ccc(Cl)cc3)nc3ccccc23)c1"
Reply text: Fulfilled

Inquiry: Determine whether this compound shows growth lower than 50% (ties excluded): "OC1CCN(CCCOc2c3ccc(Cl)cc3nc3c2oc2ccc(Cl)cc23)CC1"
Reply text: Fulfilled

Inquiry: Determine whether this compound shows growth lower than 50% (ties excluded): "COc1ccc(-c2nc3ccc(-c4nnc(SCC(=O)Nc5ccc(C(C)=O)cc5)o4)cc3[nH]2)cc1"
Reply text: Not fulfilled

Inquiry: Determine whether this compound shows growth lower than 50% (ties excluded): "O=C(CN1C(=O)/C(=C/c2ccccc2)SC1=S)N1CCOCC1"
Reply text: Not fulfilled

Inquiry: Determine whether this compound shows growth lower than 50% (ties excluded): CSCCC(C(=O)O)N1C(=O)/C(=C/c2ccc(O)c(O)c2)SC1=S (stereo not given)
Reply text: Not fulfilled

Inquiry: Determine whether this compound shows growth lower than 50% (ties excluded): "CCOC(=O)c1c(Nc2ccccc2)nn2c(N)c(C#N)c(-c3ccc(F)cc3)nc12"
Reply text: Not fulfilled

Inquiry: Determine whether this compound shows growth lower than 50% (ties excluded): "CCOC(=O)c1c(Nc2ccccc2)nn2c(N)c(C#N)c(-c3ccc(OC)cc3)nc12"
Reply text: Not fulfilled

Inquiry: Determine whether this compound shows growth lower than 50% (ties excluded): "O=C(CN1CCOCC1)NNc1ncnc2ccccc12"
Reply text: Not fulfilled

Inquiry: Determine whether this compound shows growth lower than 50% (ties excluded): Cc1cc(C(NC(=O)CCCCCNc2cccc3c2C(=O)N(C2CCC(=O)NC2=O)C3=O)c2cccnc2)c(O)c2ncccc12 (stereo not given)
Reply text: Fulfilled

Inquiry: Determine whether this compound shows growth lower than 50% (ties excluded): "CC(=O)Oc1ccccc1C(=O)Nc1ccc(C(=O)/C=C/c2ccncc2)cc1"
Reply text: Not fulfilled

Inquiry: Determine whether this compound shows growth lower than 50% (ties excluded): C#Cc1nc(C2=C(C)C(O)/C(=N/O)C2)cs1 (stereo not given)
Reply text: Not fulfilled

Inquiry: Determine whether this compound shows growth lower than 50% (ties excluded): "COc1ccc(/C=C2\SC(=Nc3cc(C)on3)NC2=O)cc1"
Reply text: Not fulfilled

Inquiry: Determine whether this compound shows growth lower than 50% (ties excluded): "Cc1nc(-c2cc3ccccc3oc2=O)ccc1C(=O)/C=C/c1ccc(N2CCOCC2)cc1"
Reply text: Not fulfilled
